# tested_system: Paired box protein Pax-8 (Homo sapiens)
# Sequence (Q06710 whole entry): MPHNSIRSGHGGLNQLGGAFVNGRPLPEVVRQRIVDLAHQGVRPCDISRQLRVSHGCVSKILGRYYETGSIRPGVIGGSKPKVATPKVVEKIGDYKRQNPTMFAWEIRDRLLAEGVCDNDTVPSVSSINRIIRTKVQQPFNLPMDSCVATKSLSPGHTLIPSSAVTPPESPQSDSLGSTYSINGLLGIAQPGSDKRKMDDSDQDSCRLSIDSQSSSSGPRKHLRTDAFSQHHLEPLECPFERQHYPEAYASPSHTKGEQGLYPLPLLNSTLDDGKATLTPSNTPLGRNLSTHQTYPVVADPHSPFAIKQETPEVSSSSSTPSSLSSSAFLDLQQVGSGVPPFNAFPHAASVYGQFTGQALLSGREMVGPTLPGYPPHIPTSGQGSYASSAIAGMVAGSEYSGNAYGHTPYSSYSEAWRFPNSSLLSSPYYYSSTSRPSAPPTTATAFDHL
# method_notes: inhibitors of PAX8-driven TPO luciferase reporter, dose response, RMG-I cells, cherry-pick (AID 687027);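 also: luciferase reporter driven by Pax8 target thyroperoxidase promoter measured by SteadyGlo luminescence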
# Type: functional, cell-based
Calls of active or inactive are those of the source. No rule for the calls is given here.
quantity_name: AC50

IN: Identify measured AC50 associated with `C[C@H]1CN([C@@H](C)CO)C(=O)c2cccc(NC(=O)Nc3ccc(F)cc3)c2O[C@H]1CN(C)C(=O)Nc1ccc(C(F)(F)F)cc1`
OUT: 13.1 µM (active)

IN: Please supply the value of reported AC50 for the item `O=C(NC1CCCCC1)N1C[C@@H]2N[C@H](C1)[C@@H]2c1ccc(-c2ccc(F)cc2)cc1`
OUT: 17.2 µM (active)

IN: Identify measured AC50 corresponding to `COc1ccc(-c2csc3ncnc(Sc4nnnn4C)c23)cc1`
OUT: 4.92 µM (active)

IN: Identify the reported AC50 for the following entry. `COc1ccc(-n2nc3c(N4CCC(C(=O)NCc5cccc(C)c5)CC4)nnc(C)c3c2C)cc1`
OUT: 5.58 µM (active)
